assay_details: In-vivo pharmacokinetic parameters in SD rats
test_parameters: male, rat, plasma, 1 mg/kg, IV, 1 mpk
metric: MRT inf

COc1cc(F)cc([C@@H](CO)NC(=O)[C@@H](C)N2Cc3ccc(-c4nc(NC5CCOCC5)ncc4F)c(F)c3C2=O)c1 12 min

Continue with the next compound.
// MRT inf lookup, key: `C[C@H](C(=O)N[C@H](CO)c1cccc(Cl)c1)N1Cc2ccc(-c3nc(NC4CCOCC4)ncc3F)c(F)c2C1=O`
18 min

###

system_under_test: ERK1/2 kinase
Construct: fused on or other part: Carna's ERK products carry a GST tag by vendor knowledge
assay_details: ERK1/2 kinase (Carna) inhibitory activity, Caliper mobility shift
Assay type: biochemical
test_parameters: numeric values; read-out: ERK½ IC50
metric: IC50

Field: IC50. Fill in for each record below.
1. Cc1cccc([C@@H](CO)NC(=O)[C@@H](C)N2Cc3ccc(-c4nc(NC5COC5)ncc4Cl)nc3C2=O)c1
2. [2H]C([2H])([2H])Oc1cc(F)cc([C@@H](CO)NC(=O)[C@@H](C)N2Cc3ccc(-c4nc(NC5CCOCC5)ncc4F)c(F)c3C2=O)c1
3. C[C@H](C(=O)N[C@H](CO)c1cccc(Cl)c1)N1Cc2ccc(-c3nc(NC4CCOCC4)ncc3Cl)c(F)c2C1=O
4. COc1cc(F)cc([C@@H](CO)NC(=O)[C@@H](C)N2Cc3ccc(-c4nc(NC5CCOCC5)ncc4F)c(F)c3C2=O)c1
5. C[C@H](C(=O)N[C@H](CO)c1cccc(Cl)c1)N1Cc2ccc(-c3nc(NC4CCOCC4)ncc3Cl)nc2C1=O
6. Cc1cccc([C@@H](CO)NC(=O)[C@@H](C)N2Cc3ccc(-c4nc(NC5CCOCC5)ncc4F)nc3C2=O)c1
7. C[C@H](C(=O)N[C@H](CO)c1cccc(Cl)c1)N1Cc2ccc(-c3nc(NC4CCOCC4)ncc3F)c(F)c2C1=O

1: 5.2 nM; 2: < 1 nM; 3: 0.8 nM; 4: < 1 nM; 5: 5.3 nM; 6: 3.7 nM; 7: < 1 nM

Record IC50 for all entries; do not skip any.
1. COc1cc(F)cc([C@@H](CO)NC(=O)[C@@H](C)N2Cc3ccc(-c4nc(NC5CCOCC5)ncc4Cl)c(F)c3C2=O)c1
2. COc1cc(F)cc([C@@H](CO)NC(=O)[C@@H](C)N2Cc3ccc(-c4nc(NC5CCOCC5)ncc4Cl)nc3C2=O)c1
3. Cc1cccc([C@@H](CO)NC(=O)[C@@H](C)N2Cc3ccc(-c4nc(NC5CCOCC5)ncc4F)c(F)c3C2=O)c1
4. COc1cc(F)cc([C@@H](CO)NC(=O)[C@@H](C)N2Cc3ccc(-c4nc(NC5CCOC5)ncc4F)c(F)c3C2=O)c1 (stereo partly shown)
5. Cc1cccc([C@@H](CO)NC(=O)[C@@H](C)N2Cc3ccc(-c4nc(N[C@H]5CCOC5)ncc4Cl)nc3C2=O)c1

1. 0.9 nM
2. 0.8 nM
3. 0.9 nM
4. < 1 nM
5. 8.3 nM

Which IC50 is listed for `Cc1cccc([C@@H](CO)NC(=O)[C@@H](C)N2Cc3ccc(-c4ccnc(NC5CCOCC5)n4)nc3C2=O)c1` ?
6.9 nM

###

assay_details: In-vivo pharmacokinetic parameters in mice
Design: species or system Balb-c mice
test_parameters: male, Balb-c, mouse, plasma, IV, 1 mg/kg
metric: clearance (mL/min/kg)
Answers are plain numbers, in mL/min/kg.

COc1cc(F)cc([C@@H](CO)NC(=O)[C@@H](C)N2Cc3ccc(-c4nc(NC5CCOCC5)ncc4Cl)c(F)c3C2=O)c1 102
COc1cc(F)cc([C@@H](CO)NC(=O)[C@@H](C)N2Cc3ccc(-c4nc(NC5CCOCC5)ncc4Cl)nc3C2=O)c1 144
Cc1cccc([C@@H](CO)NC(=O)[C@@H](C)N2Cc3ccc(-c4nc(NC5CCOCC5)ncc4Cl)c(F)c3C2=O)c1 80
Cc1cccc([C@@H](CO)NC(=O)[C@@H](C)N2Cc3ccc(-c4nc(NC5CCOCC5)ncc4F)c(F)c3C2=O)c1 75
C[C@H](C(=O)N[C@H](CO)c1cccc(Cl)c1)N1Cc2ccc(-c3nc(NC4CCOCC4)ncc3Cl)c(F)c2C1=O 34

// input: 3 compounds below; output: clearance for each
1. C[C@H](C(=O)N[C@H](CO)c1cccc(Cl)c1)N1Cc2ccc(-c3nc(NC4CCOCC4)ncc3F)c(F)c2C1=O
2. COc1cc(F)cc([C@@H](CO)NC(=O)[C@@H](C)N2Cc3ccc(-c4nc(NC5CCOCC5)ncc4F)c(F)c3C2=O)c1
3. Cc1cccc([C@@H](CO)NC(=O)[C@@H](C)N2Cc3ccc(-c4nc(Nc5ccnn5C)ncc4Cl)c(F)c3C2=O)c1

1. 50
2. 78
3. 110

###

assay_details: Liver microsomal metabolic stability, rat
Type: in vitro ADME
test_parameters: liver microsomes, 0.5 mg/mL microsomes, 1 μM compound, NADPH, read-out: Liver microsomal stability T1/2
Procedure: The reaction was stopped with tinidazole-containing acetonitrile at 0 min, 5 min, 10 min and 30 min, respectively. After vortexing for 10 min and centrifuging at 15,000 rmp for 10 min, 50 μL of the supernatant was injected into a 96-well plate. The metabolic stability of the compound was calculated by determining the relative reduction of the drug, calculated as half-life T1/2.
Please use Fulfilled whenever half-life at 1 μM is not below 4 min, and Not fulfilled whenever it is.

# example entries with known answers
molecule	class_label
Cc1cccc([C@@H](CO)NC(=O)[C@@H](C)N2Cc3ncc(-c4nc(NC5CCOCC5)ncc4Cl)cc3C2=O)c1 [Comparative compound 3, reference compound]	Fulfilled
Cc1cccc([C@@H](CO)NC(=O)[C@@H](C)N2Cc3c(F)cc(-c4nc(NC5CCOCC5)ncc4Cl)cc3C2=O)c1 [Comparative compound 4, reference compound]	Not fulfilled
C[C@H](C(=O)N[C@H](CO)c1cccc(Cl)c1)N1Cc2ccc(-c3nc(NC4CCOCC4)ncc3Cl)nc2C1=O	Fulfilled
COc1cc(F)cc([C@@H](CO)NC(=O)[C@@H](C)N2Cc3ccc(-c4nc(NC5CCOCC5)ncc4Cl)cc3C2=O)c1 [Comparative compound 5, reference compound]	Not fulfilled

Textbook exercise: given the entry `COc1cc(F)cc([C@@H](CO)NC(=O)[C@@H](C)N2Cc3ccc(-c4nc(NC5CCOCC5)ncc4F)c(F)c3C2=O)c1` , state whether its half-life at 1 μM is greater than or equal to 4 min.
Fulfilled

Item `COc1cc(F)cc([C@@H](CO)NC(=O)[C@@H](C)N2Cc3ccc(-c4nc(NC5CCOCC5)ncc4Cl)nc3C2=O)c1` with half-life at 1 μM of 4 min or above?
Fulfilled

###

Test system: Colo-205 transplanted tumor
assay_details: Growth inhibition of nude mice Colo-205 transplanted tumor
Format: in vivo
test_parameters: 50 mg/kg, qdx21, po; D21
metric: Terminal weight (D21)

Some entries whose results are on file:
molecule	Terminal weight (D21)
CC(C)Nc1cc(-c2c[nH]c(C(=O)N[C@H](CO)c3cccc(Cl)c3)c2)c(Cl)cn1 [BVD523, reference compound]	19.0 g
C[C@H](C(=O)N[C@H](CO)c1cccc(Cl)c1)N1Cc2ccc(-c3nc(NC4CCOCC4)ncc3F)c(F)c2C1=O	24.5 g

Provide the reported Terminal weight (D21) of each entry below, same order.
1. COc1cc(F)cc([C@@H](CO)NC(=O)[C@@H](C)N2Cc3ccc(-c4nc(NC5CCOCC5)ncc4F)c(F)c3C2=O)c1
2. Cc1cccc([C@@H](CO)NC(=O)[C@@H](C)N2Cc3ccc(-c4nc(NC5CCOCC5)ncc4F)c(F)c3C2=O)c1

1: 23.2 g; 2: 21.7 g

###

assay_details: Liver microsomal metabolic stability, human
Format: in vitro ADME
test_parameters: 0.5 mg/mL microsomes, 1 μM compound, NADPH
Consider the following compounds; for each one, report its Liver microsomal stability T1/2.
One number for each entry, in min.

Look up Liver microsomal stability T1/2 for the entries below, preserving their order.
1. COc1cc(F)cc([C@@H](CO)NC(=O)[C@@H](C)N2Cc3ccc(-c4nc(NC5CCOCC5)ncc4Cl)c(F)c3C2=O)c1
2. C[C@H](C(=O)N[C@H](CO)c1cccc(Cl)c1)N1Cc2ccc(-c3nc(NC4CCOCC4)ncc3Cl)c(F)c2C1=O
3. Cc1cccc([C@@H](CO)NC(=O)[C@@H](C)N2Cc3ccc(-c4nc(NC5CCOCC5)ncc4F)c(F)c3C2=O)c1
4. Cc1cccc([C@@H](CO)NC(=O)[C@@H](C)N2Cc3ccc(-c4nc(NC5CCOCC5)ncc4Cl)c(F)c3C2=O)c1
5. C[C@H](C(=O)N[C@H](CO)c1cccc(Cl)c1)N1Cc2ccc(-c3nc(NC4CCOCC4)ncc3F)c(F)c2C1=O
6. C[C@H](C(=O)N[C@H](CO)c1cccc(Cl)c1)N1Cc2ccc(-c3ccnc(Nc4ccnn4C)c3)cc2C1=O [compound 2, reference compound]

1: 18; 2: 18; 3: 13; 4: 18; 5: 11; 6: 15

Data provenance is patent US20230312564A1.
